Data provenance is patent US6815187B1.

- assay-info: PIP2 binding assay (filtration of PIP2 micelle-bound peptide)
- stated-conditions: calculated from densitometry of filter flow-through, FIG. 7; read-out: dissociation constant (Kd) for PIP2
Where no end group is shown, it is not given here. [ ]: non-standard residue; d: D form. pS = N[C@@H](COP(=O)(O)O)C(=O)O
quantity-measured: Kd (µM)
Write down the numeric answer in µM and omit the unit.

Asked: Consider the substance shown here: S4c-P: similar syndecan-4 cytoplasmic tail peptide with a phosphorylated Ser (RMKKKDEG[pS]YDLGKKPIYKKAPTNEFYA) What is its recorded Kd?
Given back: 232
